# target entity: BRAF V600E (Homo sapiens, UniProt P15056, V600E)
# Construct: endogenous C-terminal HiBiT fusion tag on BRAF V600E allele; endogenous in cells; host or cells: A375 clone 1F10 (CRISPR-Cas9 knock-in of the HiBiT tag; parental A375 from ATCC)
# Sequence (P15056 whole entry V600E, the tested form may be a part): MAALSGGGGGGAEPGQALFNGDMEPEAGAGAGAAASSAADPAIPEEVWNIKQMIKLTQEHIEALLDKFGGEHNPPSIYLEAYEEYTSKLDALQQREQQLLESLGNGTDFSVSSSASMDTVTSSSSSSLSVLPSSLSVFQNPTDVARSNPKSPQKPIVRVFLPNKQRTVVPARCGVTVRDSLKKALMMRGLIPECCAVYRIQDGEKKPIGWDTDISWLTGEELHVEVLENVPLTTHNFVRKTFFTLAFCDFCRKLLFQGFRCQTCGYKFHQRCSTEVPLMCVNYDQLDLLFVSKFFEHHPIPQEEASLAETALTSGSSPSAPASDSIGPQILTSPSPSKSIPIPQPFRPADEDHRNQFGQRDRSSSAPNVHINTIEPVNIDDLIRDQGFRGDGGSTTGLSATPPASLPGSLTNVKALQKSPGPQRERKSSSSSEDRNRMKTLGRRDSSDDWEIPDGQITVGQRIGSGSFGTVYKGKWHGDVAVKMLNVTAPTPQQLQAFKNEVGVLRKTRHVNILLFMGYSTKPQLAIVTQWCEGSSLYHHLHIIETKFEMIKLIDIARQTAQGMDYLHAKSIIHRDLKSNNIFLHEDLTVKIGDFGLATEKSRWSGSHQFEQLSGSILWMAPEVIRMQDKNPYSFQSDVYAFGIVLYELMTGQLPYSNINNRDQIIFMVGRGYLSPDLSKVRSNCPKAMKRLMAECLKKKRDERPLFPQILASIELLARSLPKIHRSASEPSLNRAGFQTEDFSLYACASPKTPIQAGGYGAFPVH
# measurement protocol: BRAF HiBiT degradation assay, C-terminal HiBiT-tagged BRAF V600E A375 cells (clone 1F10), Nano-Glo HiBiT Lytic assay
# Assay type: cell-based
# experimental conditions: A-375; A375 (BRAF V600E, Class 1); observed Dmax, % protein degraded relative to DMSO control
Item-by-item account of Dmax

Prompt: Which Dmax is listed for O=C1CC[C@H](c2ccc(N3CCC(CN4CCN(c5ccc(-n6cc(-c7cc(F)cc(NS(=O)(=O)N8CCCC8)c7F)c(-c7ccncc7)n6)cc5)CC4)CC3)nc2)C(=O)N1 ?
Response: > 70%

Prompt: Which Dmax is listed for O=C1CC[C@H](c2ccc(N3CCC(CN4CCN(c5ccc(-n6cc(-c7cc(Cl)cc(NS(=O)(=O)N8CCCC8)c7F)c(-c7ccncc7)n6)nc5)CC4)CC3)nc2)C(=O)N1 ?
Response: > 70%

Prompt: Which Dmax is listed for O=C1CCC(c2ccc(N3CCC4(CC3)CC(CN3CCN(c5ccc(-n6cc(-c7cc(Cl)cc(NS(=O)(=O)N8CC[C@@H](F)C8)c7F)c(-c7ccncc7)n6)nc5)CC3)C4)cc2)C(=O)N1 (mixture of isomers) ?
Response: 30 to 70%

---

# target entity: BRAF G466V (Homo sapiens, UniProt P15056, G466V)
# Construct: Horizon Discovery (HCT-116 BRAF−/− cells); host or cells: HCT-116 BRAF−/− cells, clone 8, lentiviral transduction
# Sequence (P15056 whole entry G466V): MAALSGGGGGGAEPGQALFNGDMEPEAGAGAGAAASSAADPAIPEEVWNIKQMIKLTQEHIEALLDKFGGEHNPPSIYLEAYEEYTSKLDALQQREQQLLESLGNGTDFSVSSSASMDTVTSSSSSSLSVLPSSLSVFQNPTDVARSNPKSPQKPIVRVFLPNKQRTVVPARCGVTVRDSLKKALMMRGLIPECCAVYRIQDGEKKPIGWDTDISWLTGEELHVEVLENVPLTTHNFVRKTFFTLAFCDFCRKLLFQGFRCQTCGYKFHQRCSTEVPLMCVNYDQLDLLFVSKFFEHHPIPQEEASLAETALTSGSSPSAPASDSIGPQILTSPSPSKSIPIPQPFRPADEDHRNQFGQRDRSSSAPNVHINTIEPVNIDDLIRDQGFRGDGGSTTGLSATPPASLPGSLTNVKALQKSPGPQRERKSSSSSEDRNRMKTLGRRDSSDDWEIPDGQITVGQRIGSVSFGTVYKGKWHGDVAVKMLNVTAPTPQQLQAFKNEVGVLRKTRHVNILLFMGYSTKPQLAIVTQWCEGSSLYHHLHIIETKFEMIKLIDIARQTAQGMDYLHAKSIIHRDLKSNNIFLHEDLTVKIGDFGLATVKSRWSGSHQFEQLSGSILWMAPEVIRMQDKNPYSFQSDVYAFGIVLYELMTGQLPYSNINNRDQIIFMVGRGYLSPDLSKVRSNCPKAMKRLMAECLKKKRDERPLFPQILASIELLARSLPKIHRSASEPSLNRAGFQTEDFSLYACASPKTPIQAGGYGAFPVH
# measurement protocol: BRAF HiBiT degradation assay, C-terminal HiBiT-tagged BRAF G466V overexpressed in HCT-116 BRAF−/− cells (clone 8), Nano-Glo HiBiT Lytic assay
# Type: cell-based
# experimental conditions: BRAF G466V (Class 3), HCT-116 BRAF−/− cells; DC50 at 50% degradation
# Protocol: An A375 cell line expressing a homozygous V600E mutation was purchased from ATCC (Manassas, VA, USA). […] HiBiT signal was measured by a Nano-Glo HiBiT Lytic assay (Promega cat. no. N3050). […] Luminesce units (LU) were read on an EnVision plate reader 2105 (Perkin Elmer). Percent protein remaining and viability remaining per sample were calculated as follows: […]
measured endpoint: DC50

molecule="O=C1CCC(c2ccc(N3CCC4(CC3)CC(CN3CCN(c5ccc(-n6cc(-c7cc(Cl)cc(NS(=O)(=O)N8CC[C@@H](F)C8)c7F)c(-c7ccncc7)n6)nc5)CC3)C4)cc2)C(=O)N1 (mixture of isomers)" test_result="> 500 nM"
molecule=O=C1CC[C@H](c2ccc(N3CCC(CN4CCN(c5ccc(-n6cc(-c7cc(C(F)F)cc(NS(=O)(=O)N8CCCC8)c7F)c(-c7ccncc7)n6)cc5)CC4)CC3)cc2)C(=O)N1 test_result="< 10 nM"
molecule=O=C1CC[C@H](c2ccc(N3CCC(CN4CCN(c5ccc(-n6cc(-c7cc(Cl)cc(NS(=O)(=O)N8CC(F)C8)c7F)c(-c7ccncc7)n6)c(F)c5)CC4)CC3)cc2)C(=O)N1 test_result="< 10 nM"

Prompt: Which DC50 is listed for O=C1CCC(c2ccc(N3CCC(CN4CCN(c5ccc(-n6cc(-c7cc(Cl)cc(NS(=O)(=O)N8CC(F)C8)c7F)c(-c7ccncc7)n6)cc5)CC4)CC3)nc2)C(=O)N1 (racemic) ?
Response: < 10 nM

Prompt: Which DC50 is listed for O=C1CC[C@H](c2ccc(N3CCC(CN4CCN(c5ccc(-n6cc(-c7cc(Cl)cc(NS(=O)(=O)N8CC[C@@H](F)C8)c7F)c(-c7ccncc7)n6)nc5)CC4)CC3)nc2)C(=O)N1 ?
Response: < 10 nM

---

# target entity: BRAF D594G (Homo sapiens, UniProt P15056, D594G)
# Construct: Horizon Discovery (HCT-116 BRAF−/− cells); host or cells: HCT-116 BRAF−/− cells, clone 63, lentiviral transduction
# Sequence (P15056 whole entry D594G): as the sequence (P15056 whole entry V600E, the tested form may be a part) above, with D594G, E600V counted along it
# measurement protocol: BRAF HiBiT degradation assay, C-terminal HiBiT-tagged BRAF D594G overexpressed in HCT-116 BRAF−/− cells (clone 63), Nano-Glo HiBiT Lytic assay
# Format: cell-based
# experimental conditions: BRAF D594G; DC50 at 50%: fitted conc. at Y=50
Item-by-item account of DC50

The following molecules have reported results that may help.
molecule="CCN(C)S(=O)(=O)Nc1cccc(-c2nc(C(C)(C)C)sc2-c2ccnc(Nc3ccc(N4CCN(CC5CC6(C5)CN(c5ccc(C7CCC(=O)NC7=O)cn5)C6)CC4)cn3)n2)c1F (racemic)" target_entity="BRAF D594G (Homo sapiens, UniProt P15056, D594G)" test_result="< 10 nM"
molecule="CCN(C)S(=O)(=O)Nc1cccc(-c2nc(C3CCN(C(=O)C4CCN(C(=O)C5CCN(c6ccc(C7CCC(=O)NC7=O)cn6)CC5)CC4)CC3)sc2-c2ccnc(N)n2)c1F (racemic)" target_entity="BRAF D594G (Homo sapiens, UniProt P15056, D594G)" test_result="< 10 nM"
molecule="CCCS(=O)(=O)Nc1cccc(-c2nc(C(C)(C)C)sc2-c2ccnc(Nc3cnn(CC4CCN(C(=O)CN5CCC(c6ccc(NC7CCC(=O)NC7=O)cc6)CC5)CC4)c3)n2)c1F (racemic)" target_entity="BRAF D594G (Homo sapiens, UniProt P15056, D594G)" test_result="> 500 nM"
molecule="CCCS(=O)(=O)Nc1cccc(-c2nc(C3CCN(C(=O)C4(C)CCN(C(=O)CC5CCN(c6ccc(C7CCC(=O)NC7=O)cn6)CC5)CC4)CC3)sc2-c2ccnc(N)n2)c1F (racemic)" target_entity="BRAF D594G (Homo sapiens, UniProt P15056, D594G)" test_result="> 500 nM"
molecule="CCCS(=O)(=O)Nc1cccc(-c2nc(CCC3CCN(C(=O)C4CCN(C(=O)C5CCN(c6ccc(C7CCC(=O)NC7=O)cn6)CC5)CC4)CC3)sc2-c2ccnc(N)n2)c1F (racemic)" target_entity="BRAF D594G (Homo sapiens, UniProt P15056, D594G)" test_result="> 500 nM"

Prompt: Which DC50 is listed for CCCS(=O)(=O)Nc1cccc(-c2cn(-c3ccc(N4CCN(CC5CCN(c6ccc([C@@H]7CCC(=O)NC7=O)cc6)CC5)CC4)cc3)nc2-c2ccncc2)c1F ?
Response: > 500 nM

Prompt: Which DC50 is listed for CCCS(=O)(=O)Nc1cccc(-c2cn(-c3ccc(C4CCN(CC5CCN(c6ccc(C7CCC(=O)NC7=O)c(F)c6)CC5)CC4)cc3)nc2-c2ccncc2)c1F (racemic) ?
Response: > 500 nM

Prompt: Which DC50 is listed for CCCS(=O)(=O)Nc1cccc(-c2nc(C3CCN(C(=O)C4CCN(CC5CCN(c6ccc([C@H]7CCC(=O)NC7=O)cc6)CC5)CC4)CC3)sc2-c2ccnc(NC)n2)c1F ?
Response: > 500 nM

Prompt: Which DC50 is listed for CCN(C)S(=O)(=O)Nc1cccc(-c2nc(C(C)(C)C)sc2-c2ccnc(Nc3ccc(N4CCN(C(=O)C5CCN(c6ccc(C7CCC(=O)NC7=O)cn6)CC5)CC4)cn3)n2)c1F (racemic) ?
Response: < 10 nM

Prompt: Which DC50 is listed for CCCS(=O)(=O)Nc1cccc(-c2nc(C(C)(C)C)sc2-c2ccnc(Nc3ccc(C4CCN(CC5CCN(c6ccc([C@H]7CCC(=O)NC7=O)cc6)CC5)CC4)cc3)n2)c1F ?
Response: > 500 nM

---

# target entity: BRAF V600E (Homo sapiens, UniProt P15056, V600E)
# Construct: endogenous C-terminal HiBiT fusion tag on BRAF V600E allele; endogenous in cells; host or cells: A375 clone 1F10 (CRISPR-Cas9 knock-in of the HiBiT tag; parental A375 from ATCC)
# measurement protocol: BRAF HiBiT degradation assay, C-terminal HiBiT-tagged BRAF V600E A375 cells (clone 1F10), Nano-Glo HiBiT Lytic assay
# Format: cell-based
# experimental conditions: A-375; A375 (BRAF V600E, Class 1); observed Dmax, % protein degraded relative to DMSO control
measured endpoint: Dmax

compound="CCCS(=O)(=O)Nc1cc(Cl)cc(-c2cn(-c3ccc(N4CCN(CC5CCN(c6ccc([C@H]7CCC(=O)NC7=O)cc6)CC5)[C@H](C)C4)cc3)nc2-c2ccncc2)c1F [Compound 275]" measured_endpoint=Dmax test_result="> 70%"
compound="O=C1CCN(c2ccc(N3CCC(CN4CCN(c5ccc(-n6cc(-c7cc(Cl)cc(NS(=O)(=O)N8CC[C@@H](F)C8)c7F)c(-c7ccncc7)n6)cc5)CC4)CC3)cc2)C(=O)N1 [Compound 292]" measured_endpoint=Dmax test_result="> 70%"

Here is the next item to consider.
Prompt: Which Dmax is listed for CCCS(=O)(=O)Nc1cccc(-c2nc(C3CCC4(CC3)CCN(C(=O)C[C@H]3CCN(c5ccc(C6CCC(=O)NC6=O)cc5)C3)CC4)sc2-c2ccnc(N)n2)c1F (mixture of isomers) [Compound 253] ?
Response: 30 to 70%

Value source: patent US20260317324A1
